Numbers sourced from patent US20250163104A1.

# experimental_system: human PD-1 / PD-L1-Ig binding on Jurkat cell line over-expressing human PD-1 (Jurkat-PD-1) (Homo sapiens)
# Construct: expressed in transfected cells; host or cells: Jurkat
# run_description: Jurkat-PD-1 Cell Binding High-Content Screening Assay (CBA)
# Format: cell-based
# settings: Jurkat-PD-1 cells, PE-labeled PD-L1-Ig 20 nM final; read-out: Jurkat HPD1_PDL1 IC50
Where a SMILES comes first, the peptide text is derived from it. Bridges are numbered along the chain shown (N, C = ends). [ ]: non-standard residue; d: D form. Bip = N[C@@H](Cc1ccc(-c2ccccc2)cc1)C(=O)O; Dap = NC[C@H](N)C(=O)O
Can you tell me IC50 for the items I'm about to list?
Mention the unit after the number when you answer.

Prompt line: Give the measured IC50 for CCC(C)[C@@H]1NC(=O)[C@H](Cc2ccc(-c3ccccc3)cc2)NC(=O)[C@H](C(C)C)NC(=O)[C@H](Cc2cccc(C)c2)NC(=O)[C@H](CC(=O)O)NC(=O)[C@H](Cc2cccnc2)NC(=O)[C@H](CN)NC(=O)CSC[C@@H](C(=O)N[C@@H](C)C(N)=O)NC(=O)[C@H]([C@@H](C)O)NC(=O)[C@H](C(C)C)NC(=O)[C@H](CC2CCCCC2)NC(=O)[C@H](CCN)NC(=O)[C@@H](CC(C)C)NC(=O)[C@H](CCCN)NC1=O (some centres unmarked)
Response line: 0.0091 µM

Prompt line: Give the measured IC50 for CC(C)C[C@@H]1NC(=O)[C@H](CCCNC(=N)N)NC(=O)[C@@H](CC(C)C)NC(=O)[C@H](CN)NC(=O)[C@H](CCCNC(=N)N)NC(=O)[C@H](Cc2ccc(-c3ccccc3)cc2)NC(=O)[C@H](C(C)C)NC(=O)[C@H](Cc2c[nH]c3ccccc23)NC(=O)[C@H](CC(=O)O)NC(=O)[C@H](Cc2ccc(O)cc2)NC(=O)[C@H](CC(N)=O)NC(=O)CSC[C@@H](C(=O)N[C@@H](C)C(N)=O)NC(=O)[C@H]([C@@H](C)O)NC(=O)[C@H](C(C)C)NC1=O [Compound 1010] ({CH2CO}-NYDWV[Bip]R[Dap][dL]RLVTCA-NH2; thioether N-14)
Response line: 0.0996 µM

----------
# experimental_system: human PD-1 / PD-L1-Ig binding on Jurkat cell line over-expressing human PD-1 (Jurkat-PD-1) (Homo sapiens, UniProt Q15116)
# Construct: expressed in transfected cells; host or cells: Jurkat
# Sequence (Q15116 25-288): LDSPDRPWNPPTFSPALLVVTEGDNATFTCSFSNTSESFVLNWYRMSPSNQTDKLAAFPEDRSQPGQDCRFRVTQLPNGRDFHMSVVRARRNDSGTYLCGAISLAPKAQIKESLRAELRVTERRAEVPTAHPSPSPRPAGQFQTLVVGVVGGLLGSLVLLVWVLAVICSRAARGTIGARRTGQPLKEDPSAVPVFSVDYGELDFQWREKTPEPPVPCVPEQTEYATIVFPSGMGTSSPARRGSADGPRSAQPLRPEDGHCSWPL
# run_description: Jurkat-PD-1 Cell Binding High-Content Screening Assay (CBA)
# Format: cell-based
# settings: Jurkat-PD-1 cells, PE-labeled PD-L1-Ig 20 nM final; read-out: Jurkat HPD1_PDL1 IC50
Where a SMILES comes first, the peptide text is derived from it. Bridges are numbered along the chain shown (N, C = ends). [ ]: non-standard residue; d: D form. Bip = N[C@@H](Cc1ccc(-c2ccccc2)cc1)C(=O)O; Dab = NCC[C@H](N)C(=O)O
Can you tell me IC50 for the items I'm about to list?
// return numeric value only (unit: nM, not printed)

Prompt line: Give the measured IC50 for CC[C@H](C)[C@@H]1NC(=O)[C@H](Cc2ccc(-c3ccccc3)cc2)NC(=O)[C@H](C(C)C)NC(=O)[C@H](Cc2cccc(C)c2)NC(=O)[C@H](CC(=O)O)NC(=O)[C@H](Cc2ccc(C(=O)O)cc2)NC(=O)[C@H](Cc2ccncc2)NC(=O)CSC[C@@H](C(=O)N[C@@H](C)C(N)=O)NC(=O)[C@H]([C@@H](C)O)NC(=O)[C@H](C(C)C)NC(=O)[C@H](CC2CCCCC2)NC(=O)[C@H](CCN)NC(=O)[C@@H](CC(C)C)NC(=O)[C@H](CCCN)NC1=O
Response line: 7.1

Prompt line: Give the measured IC50 for CCCC[C@H]1NC(=O)[C@H](CCCN)NC(=O)[C@H](CCCNC(N)=O)NC(=O)[C@H](Cc2ccc(-c3ccccc3)cc2)NC(=O)[C@H](C(C)C)NC(=O)[C@H](Cc2c[nH]c3ccccc23)NC(=O)[C@H](CC(=O)O)NC(=O)[C@H](Cc2ccc(OCC(=O)O)cc2)NC(=O)[C@H](Cc2ccc(OCC(=O)O)cc2)NC(=O)CSC[C@@H](C(=O)N[C@@H](C)C(N)=O)NC(=O)[C@H]([C@@H](C)O)NC(=O)[C@H](C(C)C)NC(=O)[C@H](CC2CCCCC2)NC(=O)[C@H](CCN)NC1=O
Response line: 32.3

Prompt line: Give the measured IC50 for CC(C)C[C@@H]1NC(=O)[C@H](CCN)NC(=O)[C@@H](CC(C)C)NC(=O)[C@H](CCN)NC(=O)[C@H](CCCNC(=N)N)NC(=O)[C@H](Cc2ccc(-c3ccccc3)cc2)NC(=O)[C@H](C(C)C)NC(=O)[C@H](Cc2c[nH]c3ccccc23)NC(=O)[C@H](CC(=O)O)NC(=O)[C@H](Cc2ccc(O)cc2)NC(=O)[C@H](CC(N)=O)NC(=O)CSC[C@@H](C(=O)N[C@@H](C)C(N)=O)NC(=O)[C@H]([C@@H](C)O)NC(=O)[C@H](C(C)C)NC1=O [Compound 1004] ({CH2CO}-NYDWV[Bip]R[Dab][dL][Dab]LVTCA-NH2; thioether N-14)
Response line: 53.2

Prompt line: Give the measured IC50 for CC(C)C[C@H]1NC(=O)[C@H](CCCN)NC(=O)[C@H](CCC(=O)O)NC(=O)[C@H](Cc2ccc(-c3ccccc3)cc2)NC(=O)[C@H](C(C)C)NC(=O)[C@H](Cc2c[nH]c3ccccc23)NC(=O)[C@H](CC(=O)O)NC(=O)[C@H](Cc2ccc(-c3ccc(C(=O)O)cc3)cc2)NC(=O)[C@H](Cc2ccncc2)NC(=O)CSC[C@@H](C(=O)N[C@@H](C)C(N)=O)NC(=O)[C@H]([C@@H](C)O)NC(=O)[C@H](C(C)C)NC(=O)[C@H](CC2CCCCC2)NC(=O)[C@H](CCN)NC1=O
Response line: 40.8

----------
Can you tell me IC50 for the items I'm about to list?
# experimental_system: human PD-1 / PD-L1-Ig binding on Jurkat cell line over-expressing human PD-1 (Jurkat-PD-1) (Homo sapiens)
# Construct: expressed in transfected cells; host or cells: Jurkat
# run_description: Jurkat-PD-1 Cell Binding High-Content Screening Assay (CBA)
# Format: cell-based
# settings: Jurkat-PD-1 cells, PE-labeled PD-L1-Ig 20 nM final; read-out: Jurkat HPD1_PDL1 IC50
# Procedure: Example 3. Jurkat-PD-1 Cell Binding High-Content Screening Assay (CBA) Jurkat-PD-1 Cell Binding High-Content Screening Assay (CBA). Phycoerythrin (PE) was covalently linked to the Ig epitope tag of human PD-L1-Ig and fluorescently-labeled PD-L1-Ig was used for binding studies with a Jurkat cell line over-expressing human PD-1 (Jurkat-PD-1). Briefly, 8×10^3 Jurkat-hPD-1 cells were seeded into 384 well plates in 20 μl of DMEM supplemented with 10% fetal calf serum. […]
Where a SMILES comes first, the peptide text is derived from it. Bridges are numbered along the chain shown (N, C = ends). [ ]: non-standard residue; d: D form. ξ: configuration not given here. Bip = N[C@@H](Cc1ccc(-c2ccccc2)cc1)C(=O)O; Ile(3ξ) = CCC(C)[C@H](N)C(=O)O; Dab = NCC[C@H](N)C(=O)O; Dap = NC[C@H](N)C(=O)O
// return numeric value only (unit: nM, not printed)

Prompt line: Give the measured IC50 for CCC(C)[C@@H]1NC(=O)[C@H](Cc2ccc(-c3ccccc3)cc2)NC(=O)[C@H](C(C)C)NC(=O)[C@H](Cc2c[nH]c3ccccc23)NC(=O)[C@H](CC(N)=O)NC(=O)[C@H](Cc2ccc(O)cc2)NC(=O)[C@H](CN)NC(=O)CSC[C@@H](C(=O)N[C@@H](C)C(N)=O)NC(=O)[C@H]([C@@H](C)O)NC(=O)[C@H](C(C)C)NC(=O)[C@H](CC(C)C)NC(=O)[C@H](CCN)NC(=O)[C@@H](CC(C)C)NC(=O)[C@H](CCCCN)NC1=O (stereo partly drawn) [Compound 1091] ({CH2CO}-[Dap]YNWV[Bip][Ile(3ξ)]K[dL][Dab]LVTCA-NH2; thioether N-14)
Response line: 21.8

Prompt line: Give the measured IC50 for CC(C)C[C@@H]1NC(=O)[C@H](CCN)NC(=O)[C@@H](CC(C)C)NC(=O)[C@H](CCCCN)NC(=O)[C@H](CCCNC(=N)N)NC(=O)[C@H](Cc2ccc(-c3ccccc3)cc2)NC(=O)[C@H](C(C)C)NC(=O)[C@H](Cc2c[nH]c3ccccc23)NC(=O)[C@H](CC(=O)O)NC(=O)[C@H](Cc2ccc(O)cc2)NC(=O)[C@H](CC(N)=O)NC(=O)CSC[C@@H](C(=O)N[C@@H](C)C(N)=O)NC(=O)[C@H]([C@@H](C)O)NC(=O)[C@H](C(C)C)NC1=O [Compound 1008] ({CH2CO}-NYDWV[Bip]RK[dL][Dab]LVTCA-NH2; thioether N-14)
Response line: 59.9
